normalized growth reference
- assayMethodText: chemical genetic growth profiling, strain panel (AID 1159580);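 also: tested at 20 µM; growth read once vehicle control cultures reached saturation at 30 °C; 1 = growth at the plate median or of vehicle wells; lower values mean less growth of the strain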
- reportedConditions: S. cerevisiae deletion strains, growth OD, locus YDR150W, strain NUM1, active compounds read low
Among all 5,500 compounds or so, about 2,000 (36%) were called active. Another 18% or so got no clear call; they are omitted. This is one part of the list.
Field format: numeric only.

CNCCC(Oc1ccccc1C)c1ccccc1 (centres undefined) | 0.994
COP(N)(=O)SC (centres undefined) | 0.987
COc1cccc2c1CCC1=CC(=O)CC[C@@]12C | 1
C[C@@H]1O[C@@H](O[C@H]2CC[C@]3(C=O)C4CC[C@]5(C)[C@@H](C6=CC(=O)OC6)CC[C@]5(O)C4CC[C@]3(O)C2)[C@H](O)[C@H](O)[C@H]1O (some centres undefined) | 0.995
CO[C@H]1[C@H](O)[C@@H](O[C@H]2CC[C@]3(C=O)C4CC[C@]5(C)[C@@H](C6=CC(=O)OC6)CC[C@]5(O)C4CC[C@@H]3C2)O[C@@H](C)[C@@H]1O (some centres undefined) | 0.966
C[C@]12CC[C@H](O)C[C@H]1CCC1C2CC[C@]2(C)[C@@H](C3=CC(=O)OC3)[C@@H](O)C[C@]12O (some centres undefined) | 1.03
COc1cc(C(=O)OCCCN2CCCN(CCCOC(=O)c3cc(OC)c(OC)c(OC)c3)CC2)cc(OC)c1OC | 0.998
C[C@]12CCC(=O)C=C1CCc1ccc(O)cc12 | 1

Alright, here's another molecule for you.
INPUT: Look up normalized growth: CC(=O)N1CCCC1C(=O)O (centres undefined)
OUTPUT: 1.01

* * *

- assayMethodText: chemical genetic growth profiling, strain panel (AID 1159580);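 also: tested at 20 µM; growth read once vehicle control cultures reached saturation at 30 °C; 1 = growth at the plate median or of vehicle wells; lower values mean less growth of the strain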
- reportedConditions: S. cerevisiae deletion strains, growth OD, locus YOL136C, strain PFK27, active compounds read low
Out of some 5,500 compounds screened, about 2,000 (36%) were called active. About 18% were inconclusive and are not listed. The list shows a part of the results.
normalized growth reference
Field format: numeric only.

N#C/C(N=Cc1cc(Cl)cc(Cl)c1O)=C(\C#N)N=Cc1cc(Cl)cc(Cl)c1O | 0.769
CCn1nc(C)cc1C(=O)Sc1cccc(Br)c1 | 0.701
CO/N=C1/CC(C)(C)Cc2c(-c3ccn(C(=O)Nc4cccc(Cl)c4)n3)sc(SC)c21 | 0.993
O=C(Nc1ccc(SC(F)(F)F)cc1)Nc1ccc(Oc2cccc(C(F)(F)F)c2)nc1 | 0.907

Alright, here's another compound for you.
INPUT: Look up normalized growth: `O=C(Nc1ccccc1C(=O)O)OCC1c2ccccc2-c2ccccc21`
OUTPUT: 0.805

* * *

- assayMethodText: chemical genetic growth profiling, strain panel (AID 1159580);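 also: tested at 20 µM; growth read once vehicle control cultures reached saturation at 30 °C; 1 = growth at the plate median or of vehicle wells; lower values mean less growth of the strain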
- reportedConditions: S. cerevisiae deletion strains, growth OD, locus YEL003W, strain gim4, active compounds read low
About 2,000 (36%) of roughly 5,500 compounds were called active. About 18% were inconclusive and are not listed. The list shows a part of the results.
normalized growth reference
Field format: numeric only.

Here is how some molecules turned out for normalized growth.
COC1=CC(=O)C=C(OC)C1=O | 0.992
CC(=O)OCC(=O)[C@@]1(O)CCC2C3C[C@H](C)C4=CC(=O)C=CC4(C)C3[C@@H](O)CC21C (some centres undefined) | 1.02
CO[C@H]1[C@@H](O)[C@@H](C)O[C@H](O[C@H]2CCC3(C)C4CCC5(C)[C@@H](C6=CC(=O)OC6)CC[C@]5(O)[C@@H]4CC[C@]3(O)C2)[C@@H]1O (some centres undefined) | 1.02

Alright, here's another molecule for you.
INPUT: Look up normalized growth: C[C@@H]1CC[C@@]23CCC4(C)[C@@](C=CC5[C@@]6(C)CC[C@H](O)C(C)(C)C6CC[C@]54C)(OC2=O)C3[C@H]1C (some centres undefined)
OUTPUT: 0.99

Cited source: PubChem BioAssay AID1159580
